Reference source for all entries: patent US20180214428A1

- Tested on: primary human fibroblasts derived from IPF patients (LL29 cells)
- test.method.notes: Inhibition of the fibrotic process: αSMA staining in TGF-β1 treated LL29 fibroblasts
- Assay type: cell-based
- condition.info: Homo sapiens, Fibroblast, 96 h, TGF-β1 20 ng/mL, 4 days, % αSMA positive cells
- Excerpt: Representative compounds were screened using primary human fibroblasts (derived from IPF patients) treated with TGF-β1 to determine their ability to inhibit the fibrotic process. […]
# pEC50 per record follows
To interpret pEC50, take it as minus log10 of a concentration measured in moles per litre.

In [3]: df
Out[3]:
                           molecular_string  recorded_value
0  CC(C)(C)CC(=O)Nc1cncc(-c2cnc3[nH]nc(-c4cc5c(-c6ccccn6)cccc5[nH]4)c3c2)c1            6.12
1  Fc1cccc(-c2cccc3[nH]c(-c4n[nH]c5ncc(-c6cccnc6)cc45)cc23)c1            5.84
2  CN(C)c1cncc(-c2cnc3[nH]nc(-c4cc5c(-c6cccc(F)c6)cccc5[nH]4)c3c2)c1            6.02

With those in mind, consider the next compound.
Lookup: Param item = Cc1ncc(-c2cnc3[nH]nc(-c4cc5ncccc5[nH]4)c3c2)n1C ; retrieve measured pEC50.
Found: 6.13
